- tgt: ErbB2 WT (Homo sapiens (Human), UniProt P04626)
- Sequence (P04626 23-1255): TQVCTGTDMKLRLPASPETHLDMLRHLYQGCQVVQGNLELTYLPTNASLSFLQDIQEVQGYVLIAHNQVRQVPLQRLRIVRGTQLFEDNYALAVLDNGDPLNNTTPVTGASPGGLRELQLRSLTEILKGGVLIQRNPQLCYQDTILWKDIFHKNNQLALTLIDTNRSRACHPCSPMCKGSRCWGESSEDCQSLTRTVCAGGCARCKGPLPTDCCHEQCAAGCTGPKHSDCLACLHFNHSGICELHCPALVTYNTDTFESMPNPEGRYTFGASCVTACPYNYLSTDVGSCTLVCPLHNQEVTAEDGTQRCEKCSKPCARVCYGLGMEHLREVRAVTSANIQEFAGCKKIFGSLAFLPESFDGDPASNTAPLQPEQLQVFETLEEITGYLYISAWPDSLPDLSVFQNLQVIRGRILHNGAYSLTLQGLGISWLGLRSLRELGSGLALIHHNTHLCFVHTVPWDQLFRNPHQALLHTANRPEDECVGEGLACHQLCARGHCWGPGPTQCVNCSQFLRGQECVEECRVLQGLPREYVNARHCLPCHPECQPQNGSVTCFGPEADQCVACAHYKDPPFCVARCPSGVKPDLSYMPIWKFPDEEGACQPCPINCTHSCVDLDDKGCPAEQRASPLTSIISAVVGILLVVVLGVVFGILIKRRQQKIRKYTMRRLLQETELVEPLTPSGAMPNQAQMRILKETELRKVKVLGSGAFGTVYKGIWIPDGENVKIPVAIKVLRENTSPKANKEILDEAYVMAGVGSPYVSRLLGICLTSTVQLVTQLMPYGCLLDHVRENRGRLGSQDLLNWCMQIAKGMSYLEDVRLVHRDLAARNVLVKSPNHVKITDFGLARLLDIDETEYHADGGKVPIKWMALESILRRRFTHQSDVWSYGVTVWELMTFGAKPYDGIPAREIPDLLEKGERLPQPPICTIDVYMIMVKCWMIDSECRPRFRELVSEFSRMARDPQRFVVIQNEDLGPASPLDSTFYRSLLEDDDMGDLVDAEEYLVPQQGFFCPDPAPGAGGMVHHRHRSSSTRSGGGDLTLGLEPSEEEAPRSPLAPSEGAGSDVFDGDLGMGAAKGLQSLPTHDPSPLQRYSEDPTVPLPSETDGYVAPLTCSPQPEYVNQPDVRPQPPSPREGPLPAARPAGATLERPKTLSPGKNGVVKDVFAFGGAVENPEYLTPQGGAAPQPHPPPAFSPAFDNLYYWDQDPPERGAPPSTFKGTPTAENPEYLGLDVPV
observable: IC50 (nM)

INSERT INTO results (compound, quantitative_result) VALUES
  ('O[C@@H]1C[C@@H]2C[C@H]1CN2c1ncc2ncnc(Nc3ccc(Oc4ccn5ncnc5c4)c(Cl)c3)c2n1', 23.2),
  ('Cc1c(Oc2ccc3c(c2)ncn3C)ccc(Nc2ncnc3cnc(N(C)CC(C)(C)O)nc23)c1F', 47),
  ('Cc1cc(Nc2ncnc3cnc(N4CC[C@]45CCOC5)nc23)ccc1Oc1ccc2c(c1)ncn2C (single isomer, unassigned) [Example 93b]', 11.6),
  ('Cc1cc(Nc2ncnc3cnc(N4CC(OC(F)F)C4)nc23)ccc1Oc1ccc2c(c1)ncn2C', 107);

Measured values drawn from patent US11834453B2 for this set.
